These measurements were taken from the supplement of paper PMC12042874.

- measurement_protocol: amyloid nucleation score (Sup35N fusion, yeast selection) (log enrichment); library NNK2; higher = more nucleation; inactive = no reads after selection;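 further: zero at mode of non-aggregating sequences after 7 days selection at 30°C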
measured_endpoint: amyloid nucleation score

[[record]]
substance = "SCGVDCSVSGC"
endpoint_result = 0.903

[[record]]
substance = "FRGIPCLCHVIM"
endpoint_result = 5.81

[[record]]
substance = "SDEVVVFRRDMSGCHEFVLV"
endpoint_result = 1.12

[[record]]
substance = "YRAAWSSAAG"
endpoint_result = -0.137

[[record]]
substance = "MSSQKWADKVPWEFVCGCFD"
endpoint_result = 0.01

[[record]]
substance = "LWFGTIHNNTVGSNIDFTFT"
endpoint_result = 4.71

[[record]]
substance = "GVVLNLDTWLVDEVPDGVRM"
endpoint_result = 0.057

[[record]]
substance = "HCGVLVDISFEHALIFR"
endpoint_result = -1.99

[[record]]
substance = "GTTVMGGILVLDGQALIGSM"
endpoint_result = 1.06

[[record]]
substance = "INVSVFVVFRNRQRLKC"
endpoint_result = 7.36

[[record]]
substance = "KDGEVAAMPGRGVHQVMGEK"
endpoint_result = 0.325

[[record]]
substance = "GAWTAMSGVLMVMLWLWSVC"
endpoint_result = 1.83

[[record]]
substance = "FYKDKETCLECWMIYENCRK"
endpoint_result = -0.29

[[record]]
substance = "FNVDKRPRSDVCLAGCISD"
endpoint_result = -0.825

[[record]]
substance = "IMPVMLERTGLSGLMCNGWG"
endpoint_result = -0.315

[[record]]
substance = "NSNGEFIKGACHMVRLFGLQ"
endpoint_result = 0.098

[[record]]
substance = "ICETGMGSKVGHEPVTAQ"
endpoint_result = 0.598

[[record]]
substance = "QTSYMDYKYRMGFLS"
endpoint_result = -0.69

[[record]]
substance = "VRLSWCNMFNRVFPI"
endpoint_result = 0.3

[[record]]
substance = "SSCGYLKTTFSKLSEAHCYR"
endpoint_result = -1.45

[[record]]
substance = "LAVVTCHCSSTCCSYLLNVG"
endpoint_result = 3.38

[[record]]
substance = "MSPWRDRSRFKIYDGPTWRM"
endpoint_result = 0.728

[[record]]
substance = "ISPLIG"
endpoint_result = 0.33

[[record]]
substance = "FPGRSSCDHTAMWLL"
endpoint_result = 0.732

[[record]]
substance = "FNVSVGMMNFRMERLGI"
endpoint_result = -0.819

[[record]]
substance = "SSCRGIEWRFQTGNITQWLG"
endpoint_result = -0.165

[[record]]
substance = "VGRCTINFIRLRDWVRLRQN"
endpoint_result = -0.082

[[record]]
substance = "FEPWWCNSIMRLVVIEGEW"
endpoint_result = 0.315

[[record]]
substance = "GCSVKFIFNHKSGYYIYLLF"
endpoint_result = -0.822

[[record]]
substance = "FKLGGSNVDDFFVFNWITVF"
endpoint_result = -0.596

[[record]]
substance = "YRVDSHWANLVLKTSMIWTT"
endpoint_result = -0.829

[[record]]
substance = "NDTSYGAQRRVCSTFQGCVT"
endpoint_result = 0.211

[[record]]
substance = "NIQDLARSLDRDWTYIGIES"
endpoint_result = 3.65

[[record]]
substance = "KNNRVAFTLYFSQTARDWMH"
endpoint_result = 5.16

[[record]]
substance = "YSNSPCVIYNMKGRGSLLSH"
endpoint_result = -1.6


---

- measurement_protocol: amyloid nucleation score (Sup35N fusion, yeast selection) (log enrichment); library NNK1; higher = more nucleation; inactive = no reads after selection
param class (str): category from amyloid nucleation score; see ranges low end (below -0.1), middle (-0.1 to below 0.3), high end (0.3 or more)

[[record]]
substance = "PCWWQFY"
assigned_category = "middle"

[[record]]
substance = "GGESQFLGFTHCKLAFCSWW"
assigned_category = "middle"

[[record]]
substance = "TRWIRYTFRFS"
assigned_category = "high end"

[[record]]
substance = "CDKTYPANSLCLKDFGQLEG"
assigned_category = "middle"

[[record]]
substance = "DETLEEPCT"
assigned_category = "middle"

[[record]]
substance = "KKFFKYELFEVCIFLGYRCS"
assigned_category = "high end"

[[record]]
substance = "FVPVKFITIGSYVLHTGSLL"
assigned_category = "high end"

[[record]]
substance = "RIEHISQRQCMTFSIVTVVN"
assigned_category = "low end"

[[record]]
substance = "SVTWFIYAWWFLGGSL"
assigned_category = "low end"

[[record]]
substance = "TLIGFWPTRSFSSAVRYNPN"
assigned_category = "low end"

[[record]]
substance = "RSDWFHMCNNT"
assigned_category = "high end"

[[record]]
substance = "VCLLHNIVKGFARYINSHK"
assigned_category = "high end"

[[record]]
substance = "VDGGMLSHYYYC"
assigned_category = "middle"

[[record]]
substance = "TSSFFTDIDFNG"
assigned_category = "low end"

[[record]]
substance = "CLFLIKKHVNNDMGSVRRLS"
assigned_category = "high end"

[[record]]
substance = "SNYFVSVDRGIWSCCYMCSF"
assigned_category = "high end"

[[record]]
substance = "RRSQGAYLLNDGVRGIL"
assigned_category = "middle"

[[record]]
substance = "CRRIWA"
assigned_category = "low end"

[[record]]
substance = "TPSMKWFPKLLVLVSSTRHY"
assigned_category = "low end"

[[record]]
substance = "GSVLKLYRGITHSRNERRGP"
assigned_category = "low end"


---

- measurement_protocol: amyloid nucleation score (Sup35N fusion, yeast selection) (log enrichment); library NNK3; higher = more nucleation; inactive = no reads after selection
measured_endpoint: amyloid nucleation score

[[record]]
substance = "AHLQVYFSSNVC"
measured_endpoint = "amyloid nucleation score"
endpoint_result = "inactive"

[[record]]
substance = "NWDTNFVYSIGIDIY"
measured_endpoint = "amyloid nucleation score"
endpoint_result = "inactive"

[[record]]
substance = "SFSIDLMTSLSWHLLSCRTF"
measured_endpoint = "amyloid nucleation score"
endpoint_result = "inactive"

[[record]]
substance = "KLTIRYLWYPLEQSGYRTCE"
measured_endpoint = "amyloid nucleation score"
endpoint_result = 1.06

[[record]]
substance = "RMAIISSRIWFGFLAMQFVF"
measured_endpoint = "amyloid nucleation score"
endpoint_result = "inactive"

[[record]]
substance = "RQSALRWFSNDNWGICKAHD"
measured_endpoint = "amyloid nucleation score"
endpoint_result = -0.06

[[record]]
substance = "IMVRSIISGFRLMESRKLDS"
measured_endpoint = "amyloid nucleation score"
endpoint_result = "inactive"

[[record]]
substance = "FSFPCRTVAWFWYDFHFIGL"
measured_endpoint = "amyloid nucleation score"
endpoint_result = "inactive"

[[record]]
substance = "SSLGSETRFSYKRVHIENWR"
measured_endpoint = "amyloid nucleation score"
endpoint_result = -0.97

[[record]]
substance = "LIVRLDPIFKKIKNK"
measured_endpoint = "amyloid nucleation score"
endpoint_result = 1.27

[[record]]
substance = "CGYCVFPFLNGITVGGRFGH"
measured_endpoint = "amyloid nucleation score"
endpoint_result = 1.29

[[record]]
substance = "TTLMMGTEPGLDTRLSSLCY"
measured_endpoint = "amyloid nucleation score"
endpoint_result = "inactive"

[[record]]
substance = "LCTCTLCSLYV"
measured_endpoint = "amyloid nucleation score"
endpoint_result = "inactive"

[[record]]
substance = "LSAAFYDMETIGWISGSWVN"
measured_endpoint = "amyloid nucleation score"
endpoint_result = "inactive"

[[record]]
substance = "YLTEWDLGNVWRNPSAATPM"
measured_endpoint = "amyloid nucleation score"
endpoint_result = "inactive"

[[record]]
substance = "LRFMRSI"
measured_endpoint = "amyloid nucleation score"
endpoint_result = "inactive"

[[record]]
substance = "KPGIRYYFISM"
measured_endpoint = "amyloid nucleation score"
endpoint_result = 1.52

[[record]]
substance = "QSLLSSLLGSYSRLEKLNVD"
measured_endpoint = "amyloid nucleation score"
endpoint_result = "inactive"

[[record]]
substance = "IFYFHQFNCMPGLAFTSVIG"
measured_endpoint = "amyloid nucleation score"
endpoint_result = "inactive"

[[record]]
substance = "HLWHSVWYALRDSPSLGFFI"
measured_endpoint = "amyloid nucleation score"
endpoint_result = "inactive"

[[record]]
substance = "TERVCVCVTFVLW"
measured_endpoint = "amyloid nucleation score"
endpoint_result = 1.23

[[record]]
substance = "FCEFWYLNSRKEATELRP"
measured_endpoint = "amyloid nucleation score"
endpoint_result = "inactive"

[[record]]
substance = "MSVQGDHYFPT"
measured_endpoint = "amyloid nucleation score"
endpoint_result = "inactive"

[[record]]
substance = "DKWSWSVCNIRLSKSCNPVT"
measured_endpoint = "amyloid nucleation score"
endpoint_result = "inactive"

[[record]]
substance = "VSAAYLRTVRQ"
measured_endpoint = "amyloid nucleation score"
endpoint_result = "inactive"

[[record]]
substance = "RMDWWYSGCLFMRYPALTAL"
measured_endpoint = "amyloid nucleation score"
endpoint_result = "inactive"

[[record]]
substance = "HSMALITSSRVLVRVLTIMR"
measured_endpoint = "amyloid nucleation score"
endpoint_result = "inactive"

[[record]]
substance = "PFWELYKDFSSICRLTQEGY"
measured_endpoint = "amyloid nucleation score"
endpoint_result = "inactive"

[[record]]
substance = "QAVMKRAALVPTRTAKSLPS"
measured_endpoint = "amyloid nucleation score"
endpoint_result = "inactive"

[[record]]
substance = "LQRYRPADMRVGASSSGNTK"
measured_endpoint = "amyloid nucleation score"
endpoint_result = 0.121

[[record]]
substance = "CNLVDSYNSKRMVNSTSMPF"
measured_endpoint = "amyloid nucleation score"
endpoint_result = "inactive"

[[record]]
substance = "SNCTLRE"
measured_endpoint = "amyloid nucleation score"
endpoint_result = "inactive"

[[record]]
substance = "SAQNYTL"
measured_endpoint = "amyloid nucleation score"
endpoint_result = "inactive"

[[record]]
substance = "PQIVFRFDNIDQ"
measured_endpoint = "amyloid nucleation score"
endpoint_result = "inactive"

[[record]]
substance = "FGCCKRCRHNRVSKEFSWSC"
measured_endpoint = "amyloid nucleation score"
endpoint_result = "inactive"

[[record]]
substance = "RNCLIYGHNDILGISRLSDF"
measured_endpoint = "amyloid nucleation score"
endpoint_result = "inactive"

